target: HuR (Homo sapiens); construct: gene ELAVL1; mCherry-HuR (HuR open reading frame), overexpressed in HuR KO HEK293T lysate; assay: RP-CONA on-bead confocal assay: inhibition of mCherry-HuR binding to pri-miR-7-1-CTL RNA in cell lysate; confirmed by RNA pull-down/western blot; format: biochemical
Sequence (Q15717 2-326): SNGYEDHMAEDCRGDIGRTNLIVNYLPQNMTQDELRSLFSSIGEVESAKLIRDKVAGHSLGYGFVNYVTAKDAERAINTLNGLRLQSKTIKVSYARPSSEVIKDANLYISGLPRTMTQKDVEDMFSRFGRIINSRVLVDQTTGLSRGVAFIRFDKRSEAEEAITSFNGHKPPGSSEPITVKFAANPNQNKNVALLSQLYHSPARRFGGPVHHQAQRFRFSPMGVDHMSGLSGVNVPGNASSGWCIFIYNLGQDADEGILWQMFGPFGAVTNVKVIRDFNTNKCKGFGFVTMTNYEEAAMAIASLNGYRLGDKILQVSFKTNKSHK
valueType: IC50 (nM)
Give your result in nM as a bare value.

Ask: # lookup: IC50 of O=c1cc(-c2ccc(O)c(O)c2)oc2cc(O)cc(O)c12
Reply: 2030

Values were extracted from paper PMC8216281.
